Data credit: patent US11214614B2

Entries annotated with measured Hu LTBP3-proTGFβ1 Koff
- study_target: huLTBP3 proTGFβ1 (Homo sapiens, UniProt P01137+Q9NS15)
- Sequence (P01137 30-390): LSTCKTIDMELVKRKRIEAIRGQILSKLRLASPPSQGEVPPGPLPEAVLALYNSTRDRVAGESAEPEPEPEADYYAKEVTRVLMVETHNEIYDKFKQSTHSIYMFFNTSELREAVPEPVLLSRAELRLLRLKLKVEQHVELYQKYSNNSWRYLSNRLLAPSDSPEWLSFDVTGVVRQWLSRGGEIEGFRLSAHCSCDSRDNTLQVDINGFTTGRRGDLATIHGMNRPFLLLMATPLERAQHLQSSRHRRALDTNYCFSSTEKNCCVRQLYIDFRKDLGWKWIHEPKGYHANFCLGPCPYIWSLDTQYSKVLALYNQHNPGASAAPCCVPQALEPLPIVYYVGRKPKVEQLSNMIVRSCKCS
- Sequence (Q9NS15 44-1303): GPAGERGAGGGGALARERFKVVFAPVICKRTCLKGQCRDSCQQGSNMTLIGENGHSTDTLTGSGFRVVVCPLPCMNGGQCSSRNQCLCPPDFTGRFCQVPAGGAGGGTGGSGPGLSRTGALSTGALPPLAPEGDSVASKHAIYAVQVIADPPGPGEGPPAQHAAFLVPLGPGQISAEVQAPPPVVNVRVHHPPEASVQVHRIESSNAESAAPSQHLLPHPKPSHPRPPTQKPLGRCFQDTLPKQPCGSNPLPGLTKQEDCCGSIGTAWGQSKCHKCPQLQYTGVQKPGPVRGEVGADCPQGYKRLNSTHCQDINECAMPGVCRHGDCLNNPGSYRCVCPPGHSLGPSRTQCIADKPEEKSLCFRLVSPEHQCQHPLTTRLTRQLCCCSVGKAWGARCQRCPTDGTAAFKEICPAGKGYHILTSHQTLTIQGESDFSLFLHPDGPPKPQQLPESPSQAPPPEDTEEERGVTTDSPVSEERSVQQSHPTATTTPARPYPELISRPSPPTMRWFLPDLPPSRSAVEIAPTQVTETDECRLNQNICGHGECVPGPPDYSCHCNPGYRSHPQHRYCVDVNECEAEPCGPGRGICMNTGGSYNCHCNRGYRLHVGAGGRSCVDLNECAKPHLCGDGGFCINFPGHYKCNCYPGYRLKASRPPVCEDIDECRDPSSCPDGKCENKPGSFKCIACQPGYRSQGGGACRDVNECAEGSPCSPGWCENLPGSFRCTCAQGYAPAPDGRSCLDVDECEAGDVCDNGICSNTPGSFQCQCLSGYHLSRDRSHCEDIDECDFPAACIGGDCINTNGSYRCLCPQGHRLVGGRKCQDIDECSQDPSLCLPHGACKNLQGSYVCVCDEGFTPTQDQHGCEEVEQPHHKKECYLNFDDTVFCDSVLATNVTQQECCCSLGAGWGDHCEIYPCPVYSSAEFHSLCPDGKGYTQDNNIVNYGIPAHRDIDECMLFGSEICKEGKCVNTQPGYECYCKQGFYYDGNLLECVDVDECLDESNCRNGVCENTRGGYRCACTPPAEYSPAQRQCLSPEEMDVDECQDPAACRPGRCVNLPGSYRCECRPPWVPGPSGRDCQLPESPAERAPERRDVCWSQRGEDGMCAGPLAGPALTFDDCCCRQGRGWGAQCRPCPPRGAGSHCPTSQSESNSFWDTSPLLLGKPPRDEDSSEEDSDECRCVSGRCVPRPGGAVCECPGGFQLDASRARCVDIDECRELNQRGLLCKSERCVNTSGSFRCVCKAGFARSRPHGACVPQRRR
- procedure_text: Octet (BLI) binding, IgG captured on AHC tips, antigen at 100 nM
- condition_parameters: Table 9; cycle 3; IgG1-agly; 5-minute dissociation
Please give a number only; it is taken to be in s⁻¹.

// returns reported Hu LTBP3-proTGFβ1 Koff for input SR-AB41: cycle 3 light chain-optimized antibody, lineage SR-AB23; CDRs SEQ ID NO: 160-165 (antibody, V domains shown) VH: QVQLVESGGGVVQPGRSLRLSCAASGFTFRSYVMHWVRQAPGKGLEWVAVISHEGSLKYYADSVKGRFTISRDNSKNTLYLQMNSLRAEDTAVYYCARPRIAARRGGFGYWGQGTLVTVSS VL: NFMLTQPHSVSESPGKTVTISCTRSSGNIDNNYVQWYQQRPGSSPTTVIYEDNQRPSGVPDRFSGSIDSSSNSASLTISGLKTEDEADYYCQSYDYDNQAVVFGGGTKLTVL 6e-05

Any idea what its Hu LTBP3-proTGFβ1 Koff is? The molecule is SR-AB34: cycle 3 light chain-optimized antibody, lineage SR-AB22; CDRs SEQ ID NO: 130-135 (antibody, V domains shown) VH: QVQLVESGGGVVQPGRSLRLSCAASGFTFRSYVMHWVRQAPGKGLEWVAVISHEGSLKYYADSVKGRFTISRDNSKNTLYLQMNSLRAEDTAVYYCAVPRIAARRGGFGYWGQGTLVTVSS VL: NFMLTQPHSVSESPGKTVTISCTRSSGNIDNNYVQWYQQRPGSSPTTVIYEDNQRPSGVPDRFSGSIDSSSNSASLTISGLKTEDEADYYCQSYDYDAQGVVFGGGTKLTVL 6.68e-05
